METHOD: Pharmacokinetics of rats
Format: in vivo
PARTICULARS: rat, plasma; SD male rats, PO 3 mg/kg; read-out: Peak time Tmax
Description: The purpose of this experiment was to study the pharmacokinetics of the tested compound in the plasma of SD male rats after intravenous injection and oral administration. SD male rats from 7 to 10 weeks old were selected, and the dosage of intravenous and oral administration was 1 mg/kg and 3 mg/kg respectively. Rats in the gavage group fasted for at least 12 hours before administration, and feeding was resumed after administration for 4 hours. […]
Assign Tmax to each entry below.
Only the number, expressed in min, is required.

Which Tmax is listed for `Cc1cc(-c2nc(C(=O)Nc3cn4cc(C(C)(C)O)nc4cc3-c3ccccc3)co2)ccn1` ?
78

Similarly, `CC(C)(O)c1cn2cc(NC(=O)c3coc(-c4ccnc(N)c4)n3)c(-c3ccccc3)cc2n1` ?
48

Proceed to `CC(C)(O)c1cn2cc(NC(=O)c3coc(-c4ccnc(N)c4F)n3)c(-c3ccccc3)cc2n1`
18

----------
Would you mind telling me the reported Cmax of each entry?
METHOD: Pharmacokinetic study of mice
Type: in vivo
PARTICULARS: mouse, plasma; CD-1 male mice, PO 10 mg/kg; read-out: Peak concentration Cmax
Note: unit µM is implicit; provide only the numeric part.

Which Cmax value is on record for `CC(C)(O)c1cn2cc(NC(=O)c3coc(-c4ccnc(N)c4)n3)c(-c3ccccc3)cc2n1` ?
6.52

Same question, `CC(C)(O)c1cn2cc(NC(=O)c3coc(-c4ccnc(N)c4F)n3)c(-c3ccccc3)cc2n1` this time
4.93

Please answer likewise for `Cc1cc(-c2nc(C(=O)Nc3cn4cc(C(C)(C)O)nc4cc3-c3ccccc3)co2)ccn1`
17.8

----------
Test system: TNF-α production in THP-1 cells
METHOD: TNF-α ELISA in LPS-stimulated THP-1 cells
Format: cell-based
PARTICULARS: Homo sapiens, TNF-α in supernatant, 150 ng/mL LPS, 18 hours
Threshold check on IC50: strictly below 60 nM is yes; on or above 60 nM is no.

Lab note: confirm whether the reported IC50 for this molecule is below 60 nM, equality not counting. molecule: `CS(=O)(=O)CCc1cn2cc(NC(=O)c3coc(-c4ccnc(N)c4)n3)c(-c3ccccc3)cc2n1`
yes

Entry to check: `CNc1cc(-c2nc(C(=O)Nc3cn4cc(CCC(C)(C)O)nc4cc3N3CCCCC3)co2)ccn1`
no

Same read-out for `CC(=O)Nc1cc(-c2nc(C(=O)Nc3cn4cc(CCC(C)(C)O)nc4cc3N3CCCCC3)co2)ccn1` ?
no

Please do the same for `Cc1nccc(-c2nc(C(=O)Nc3cn4cc(C(C)(C)O)nc4cc3-c3ccccc3)co2)c1Cl` as well.
yes

Next up: `CC(C)(O)c1cn2cc(NC(=O)c3coc(-c4ccnc(N)c4F)n3)c(-c3ccccc3)cc2n1`
yes

Do the same for `CC(C)(O)CCc1cn2cc(NC(=O)c3coc(-c4ccnc(N)c4)n3)c(N3CCCCC3)cc2n1` please
yes

Try this molecule next: `CC(C)(O)CCc1cn2cc(NC(=O)c3coc(-c4ccnc5[nH]ccc45)n3)c(N3CCCCC3)cc2n1`
no

Queued: `CC(C)(O)c1cn2cc(NC(=O)c3coc(-c4ccnc(N)c4)n3)c(-c3ccccc3)cc2n1`
yes
